Hello, the source for this data is the supplement of paper PMC10307832, in case you need it.

Record form. Attribute: relative viability. Fill in for each entry.
- System: NCI-H2085
- run-description: relative viability (nuclei count vs DMSO), 5 days (fraction); higher = more cells survive
- test-parameters: first compound 0.1581 µM

# map each molecule to its relative viability
1. CC1(C)CCC(c2ccc(Cl)cc2)=C(CN2CCN(c3ccc(C(=O)NS(=O)(=O)c4ccc(N[C@H](CCN5CCOCC5)CSc5ccccc5)c(S(=O)(=O)C(F)(F)F)c4)cc3)CC2)C1 [Navitoclax] + CS(=O)(=O)CCNCc1ccc(-c2ccc3ncnc(Nc4ccc(OCc5cccc(F)c5)c(Cl)c4)c3c2)o1 [Lapatinib] (partner 2 µM)
2. CC1(C)CCC(c2ccc(Cl)cc2)=C(CN2CCN(c3ccc(C(=O)NS(=O)(=O)c4ccc(N[C@H](CCN5CCOCC5)CSc5ccccc5)c(S(=O)(=O)C(F)(F)F)c4)cc3)CC2)C1 [Navitoclax] + COc1cc2c(Oc3ccc(NC(=O)C4(C(=O)Nc5ccc(F)cc5)CC4)cc3F)ccnc2cc1OCCCN1CCOCC1 [Foretinib] (partner 0.25 µM)
3. CC1(C)CCC(c2ccc(Cl)cc2)=C(CN2CCN(c3ccc(C(=O)NS(=O)(=O)c4ccc(N[C@H](CCN5CCOCC5)CSc5ccccc5)c(S(=O)(=O)C(F)(F)F)c4)cc3)CC2)C1 [Navitoclax] + Cc1nc(NC(=O)N2CCC[C@H]2C(N)=O)sc1-c1ccnc(C(C)(C)C(F)(F)F)c1 [Alpelisib] (partner 2 µM)

### Response
0.822
0.863
0.957

----------
- Test system: HCC-44
- run-description: relative viability (nuclei count vs DMSO), 5 days (fraction); higher = more cells survive
- test-parameters: first compound 0.08 µM
Mark met only for relative viability values smaller than 1; exact matches and larger values are not met.

Some solved entries appear below for comparison.
compound="C=C1C(=O)O[C@@H](CCCCCCCC)[C@@H]1C(=O)O [C-75] + CS(=O)(=O)CCNCc1ccc(-c2ccc3ncnc(Nc4ccc(OCc5cccc(F)c5)c(Cl)c4)c3c2)o1 [Lapatinib] (partner 2 µM)" target_or_test_system=HCC-44 assigned_category=met
compound="Oc1nc(-c2ccc(C(F)(F)F)cc2)nc2c1CSCC2 [XAV939] + C[C@@H](Oc1cc(-c2cnn(C3CCNCC3)c2)cnc1N)c1c(Cl)ccc(F)c1Cl [Crizotinib] (partner 1 µM)" target_or_test_system=HCC-44 assigned_category=met
compound="Oc1nc(-c2ccc(C(F)(F)F)cc2)nc2c1CSCC2 [XAV939] + CC(=O)Nc1cccc(-n2c(=O)n(C3CC3)c(=O)c3c(Nc4ccc(I)cc4F)n(C)c(=O)c(C)c32)c1 [Trametinib] (partner 0.02 µM)" target_or_test_system=HCC-44 assigned_category="not met"

Note: attention shifts to another entry.
### Prompt Answer whether the compound Oc1nc(-c2ccc(C(F)(F)F)cc2)nc2c1CSCC2 [XAV939] + Nc1ncn([C@H]2C[C@H](O)[C@@H](CO)O2)c(=O)n1 [Decitabine] (partner 2 µM) has relative viability strictly less than 1
### Response met

----------
- System: NCI-H1915
- run-description: relative viability (nuclei count vs DMSO), 5 days (fraction); higher = more cells survive
- test-parameters: first compound 0.253 µM
Please respond with reported relative viability for every item in the list.
Answers are plain numbers.

compound="C=C1C(=O)O[C@@H](CCCCCCCC)[C@@H]1C(=O)O [C-75] + Cc1cc(Nc2cc(N3CCN(C)CC3)nc(Sc3ccc(NC(=O)C4CC4)cc3)n2)n[nH]1 [Tozasertib] (partner 0.1 µM)" test_value=0.403
compound="Oc1nc(-c2ccc(C(F)(F)F)cc2)nc2c1CSCC2 [XAV939] + Cc1nc(NC(=O)N2CCC[C@H]2C(N)=O)sc1-c1ccnc(C(C)(C)C(F)(F)F)c1 [Alpelisib] (partner 2 µM)" test_value=1.07
compound="C=C1C(=O)O[C@@H](CCCCCCCC)[C@@H]1C(=O)O [C-75] + CS(=O)(=O)N1CCN(Cc2cc3nc(-c4cccc5[nH]ncc45)nc(N4CCOCC4)c3s2)CC1 [Pictilisib] (partner 1 µM)" test_value=1.08
compound="Oc1nc(-c2ccc(C(F)(F)F)cc2)nc2c1CSCC2 [XAV939] + CC(=O)c1c(C)c2cnc(Nc3ccc(N4CCNCC4)cn3)nc2n(C2CCCC2)c1=O [Palbociclib] (partner 0.5 µM)" test_value=0.54

With those in mind, consider the next compound.
The compound listed as C=C1C(=O)O[C@@H](CCCCCCCC)[C@@H]1C(=O)O [C-75] + CCNC(=O)c1noc(-c2cc(C(C)C)c(O)cc2O)c1-c1ccc(CN2CCOCC2)cc1 [Luminespib] (partner 0.01 µM) has a reported relative viability of 0.768

----------
For each entry below, report its relative viability value.
- Tested on: PC-3 [JPC-3]
- run-description: relative viability (nuclei count vs DMSO), 5 days (fraction); higher = more cells survive
- test-parameters: first compound 2.53 µM
One number for each entry.

compound="Oc1nc(-c2ccc(C(F)(F)F)cc2)nc2c1CSCC2 [XAV939] + CC(=O)c1c(C)c2cnc(Nc3ccc(N4CCNCC4)cn3)nc2n(C2CCCC2)c1=O [Palbociclib] (partner 0.5 µM)" assay_endpoint="relative viability" test_value=0.485

# batch size: 3; output relative viability per entry
1. C=C1C(=O)O[C@@H](CCCCCCCC)[C@@H]1C(=O)O [C-75] + Cc1nc(Nc2ncc(C(=O)Nc3c(C)cccc3Cl)s2)cc(N2CCN(CCO)CC2)n1 [Dasatinib] (partner 0.075 µM)
2. C=C1C(=O)O[C@@H](CCCCCCCC)[C@@H]1C(=O)O [C-75] + COc1cc2c(Oc3ccc(NC(=O)C4(C(=O)Nc5ccc(F)cc5)CC4)cc3F)ccnc2cc1OCCCN1CCOCC1 [Foretinib] (partner 0.25 µM)
3. Oc1nc(-c2ccc(C(F)(F)F)cc2)nc2c1CSCC2 [XAV939] + O=C(c1cc(Cc2n[nH]c(=O)c3ccccc23)ccc1F)N1CCN(C(=O)C2CC2)CC1 [Olaparib] (partner 8 µM)

### Response
1. 0.937
2. 1.06
3. 1.06

Batch request: relative viability for each of the following compounds.
1. C=C1C(=O)O[C@@H](CCCCCCCC)[C@@H]1C(=O)O [C-75] + Nc1ncn([C@H]2C[C@H](O)[C@@H](CO)O2)c(=O)n1 [Decitabine] (partner 2 µM)
2. C=C1C(=O)O[C@@H](CCCCCCCC)[C@@H]1C(=O)O [C-75] + NC(=O)Nc1cc(-c2cccc(F)c2)sc1C(=O)N[C@H]1CCCNC1 [AZD7762] (partner 0.2 µM)
3. Oc1nc(-c2ccc(C(F)(F)F)cc2)nc2c1CSCC2 [XAV939] + CC(=O)Nc1cccc(-n2c(=O)n(C3CC3)c(=O)c3c(Nc4ccc(I)cc4F)n(C)c(=O)c(C)c32)c1 [Trametinib] (partner 0.02 µM)
4. C=C1C(=O)O[C@@H](CCCCCCCC)[C@@H]1C(=O)O [C-75] + CS(=O)(=O)CCNCc1ccc(-c2ccc3ncnc(Nc4ccc(OCc5cccc(F)c5)c(Cl)c4)c3c2)o1 [Lapatinib] (partner 2 µM)
5. C=C1C(=O)O[C@@H](CCCCCCCC)[C@@H]1C(=O)O [C-75] + CC(=O)Nc1cccc(-n2c(=O)n(C3CC3)c(=O)c3c(Nc4ccc(I)cc4F)n(C)c(=O)c(C)c32)c1 [Trametinib] (partner 0.02 µM)

### Response
1: 0.793; 2: 0.6; 3: 0.677; 4: 0.485; 5: 0.64

----------
- Tested on: NCI-H1651
- run-description: relative viability (nuclei count vs DMSO), 5 days (fraction); higher = more cells survive
- test-parameters: first compound 0.5 µM
assay-endpoint: relative viability
Numbers only.

Noted relative viability for CC1(C)CCC(c2ccc(Cl)cc2)=C(CN2CCN(c3ccc(C(=O)NS(=O)(=O)c4ccc(N[C@H](CCN5CCOCC5)CSc5ccccc5)c(S(=O)(=O)C(F)(F)F)c4)cc3)CC2)C1 [Navitoclax] + CC(=O)Nc1cccc(-n2c(=O)n(C3CC3)c(=O)c3c(Nc4ccc(I)cc4F)n(C)c(=O)c(C)c32)c1 [Trametinib] (partner 0.02 µM) , tested on NCI-H1651: 0.864

----------
I'd be grateful if you could share measured relative viability for these entries.
- System: EPLC-272H
- run-description: relative viability (nuclei count vs DMSO), 5 days (fraction); higher = more cells survive
- test-parameters: first compound 1.265 µM
One number for each entry.

compound="O=C(O)c1ccc(-c2c[nH]c3ncc(-c4ccccc4)cc23)cc1C1CCCC1 + C[C@]1(O)C[C@@H](c2nc(-c3ccc4ccc(-c5ccccc5)nc4c3)c3c(N)nccn32)C1 [Linsitinib] (partner 1 µM)" target_or_test_system=EPLC-272H test_value=0.857
compound="O=C(O)c1ccc(-c2c[nH]c3ncc(-c4ccccc4)cc23)cc1C1CCCC1 + Cc1nc(Nc2ncc(C(=O)Nc3c(C)cccc3Cl)s2)cc(N2CCN(CCO)CC2)n1 [Dasatinib] (partner 0.075 µM)" target_or_test_system=EPLC-272H test_value=0.337

Documented relative viability of O=C(O)c1ccc(-c2c[nH]c3ncc(-c4ccccc4)cc23)cc1C1CCCC1 + N=C(N)NC(=N)NCCc1ccccc1 [Phenformin] (partner 250 µM) : 0.328
